Tgt: soluble guanylate cyclase (sGC) (Homo sapiens, UniProt Q02108+Q02153)
Construct: endogenously expressing soluble guanylate cyclase (sGC); endogenous in cells
Sequence (Q02153 whole entry): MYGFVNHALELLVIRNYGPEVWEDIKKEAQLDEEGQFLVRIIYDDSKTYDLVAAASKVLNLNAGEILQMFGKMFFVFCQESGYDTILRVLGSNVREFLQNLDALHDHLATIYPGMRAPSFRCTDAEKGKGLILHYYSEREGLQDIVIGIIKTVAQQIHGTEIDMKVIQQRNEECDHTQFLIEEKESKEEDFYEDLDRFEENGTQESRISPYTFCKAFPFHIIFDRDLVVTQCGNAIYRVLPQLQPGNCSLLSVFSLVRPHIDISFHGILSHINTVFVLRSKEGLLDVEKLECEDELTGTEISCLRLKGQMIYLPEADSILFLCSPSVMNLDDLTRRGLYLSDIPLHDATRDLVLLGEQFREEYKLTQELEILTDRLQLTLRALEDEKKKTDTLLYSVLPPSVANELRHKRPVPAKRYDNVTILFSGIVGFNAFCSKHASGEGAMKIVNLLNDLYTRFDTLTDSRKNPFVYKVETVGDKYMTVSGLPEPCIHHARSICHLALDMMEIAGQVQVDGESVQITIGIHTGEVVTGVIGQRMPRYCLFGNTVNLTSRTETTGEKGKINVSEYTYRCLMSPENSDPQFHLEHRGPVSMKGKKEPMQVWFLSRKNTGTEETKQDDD
Sequence (Q02108 whole entry): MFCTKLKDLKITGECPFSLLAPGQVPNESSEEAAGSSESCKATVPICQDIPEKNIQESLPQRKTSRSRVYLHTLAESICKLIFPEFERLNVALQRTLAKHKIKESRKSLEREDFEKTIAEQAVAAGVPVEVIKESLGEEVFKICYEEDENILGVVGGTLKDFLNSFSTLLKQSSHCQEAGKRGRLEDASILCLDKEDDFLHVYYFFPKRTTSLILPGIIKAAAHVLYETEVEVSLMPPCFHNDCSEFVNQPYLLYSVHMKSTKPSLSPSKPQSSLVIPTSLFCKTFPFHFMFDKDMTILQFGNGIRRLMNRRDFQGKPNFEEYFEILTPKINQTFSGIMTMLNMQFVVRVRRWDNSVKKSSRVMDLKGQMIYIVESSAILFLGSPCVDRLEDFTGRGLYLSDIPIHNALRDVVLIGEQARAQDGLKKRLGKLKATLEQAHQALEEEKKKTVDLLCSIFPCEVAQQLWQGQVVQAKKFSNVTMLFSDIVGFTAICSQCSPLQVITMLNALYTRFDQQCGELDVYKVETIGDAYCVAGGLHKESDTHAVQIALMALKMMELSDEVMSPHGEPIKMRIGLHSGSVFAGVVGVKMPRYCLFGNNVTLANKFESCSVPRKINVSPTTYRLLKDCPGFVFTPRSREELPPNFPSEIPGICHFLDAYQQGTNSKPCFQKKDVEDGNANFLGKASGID
Method notes: sGC-HEK-cGMP assay with LC/MS detection
Test conditions: HEK293 cells, 10 μM DETA-NONOate; concentration eliciting 50% of high control response (30 μM Compound Y); read-out: sGC_HEK_LC MS EC50 Abs

[
  {
    "Compound": "CCOC(=O)C1(C)C(=O)Nc2nc(-c3cc(OC(F)F)n(Cc4ccccc4F)n3)nc(N)c21 (stereo not drawn) [Compound I-72]",
    "Tgt": "soluble guanylate cyclase (sGC) (Homo sapiens, UniProt Q02108+Q02153)",
    "EC50": "< 0.1 µM"
  },
  {
    "Compound": "COc1nc(-c2ncc(F)c(O)n2)nn1Cc1ccccc1F [Compound I-3]",
    "Tgt": "soluble guanylate cyclase (sGC) (Homo sapiens, UniProt Q02108+Q02153)",
    "EC50": "> 30 µM"
  },
  {
    "Compound": "CCOC(=O)C1(C)C(=O)Nc2nc(-c3cc(OC)n(Cc4ccccc4F)n3)nc(N)c21 (stereo not drawn) [Compound I-1]",
    "Tgt": "soluble guanylate cyclase (sGC) (Homo sapiens, UniProt Q02108+Q02153)",
    "EC50": "< 0.1 µM"
  },
  {
    "Compound": "COc1cc(-c2ncc(F)c(N3CCS(=O)(=O)CC3)n2)nn1Cc1ccccc1F [Compound I-63]",
    "Tgt": "soluble guanylate cyclase (sGC) (Homo sapiens, UniProt Q02108+Q02153)",
    "EC50": "> 30 µM"
  },
  {
    "Compound": "CC(C)Oc1cc(-c2nc(N)c3c(n2)NC(=O)C3(C)C(N)=O)nn1Cc1ccccc1F (stereo not drawn) [Compound I-39]",
    "Tgt": "soluble guanylate cyclase (sGC) (Homo sapiens, UniProt Q02108+Q02153)",
    "EC50": "> 30 µM"
  },
  {
    "Compound": "COc1cc(-c2nc(N)c3c(n2)NC(=O)C3(C)C(=O)NC2CC2)nn1Cc1ccccc1F (stereo not drawn) [Compound I-44]",
    "Tgt": "soluble guanylate cyclase (sGC) (Homo sapiens, UniProt Q02108+Q02153)",
    "EC50": "< 0.1 µM"
  }
]

###

Tgt: human recombinant soluble guanylate cyclase enzyme α1β1 (h sGC) (Homo sapiens, UniProt Q02108+Q02153)
Construct: purchased Enzo Life Sciences ALX-201-177
Method notes: Purified human recombinant sGC α1β1 enzyme assay in the presence of DETA-NONOate (cGMP HTRF)
Format: biochemical
Test conditions: 30 uM DETA NONOate; concentration eliciting 50% of high control response (30 uM Compound Y); read-out: sGC_Enz_HTRF_a1b1 EC50 Abs
Recorded EC50 for the following molecules
Quantity kind: EC50

[
  {
    "Molecule": "CCOC(=O)C1(C)C(=O)Nc2nc(-c3cc(OC)n(Cc4ccccc4F)n3)nc(N)c21 (stereo not shown) [Compound I-1]",
    "Value": "< 2 µM"
  },
  {
    "Molecule": "COc1cc(-c2ncc(F)c(=O)[nH]2)nn1Cc1ccccc1F [Compound I-5]",
    "Value": "> 5 µM"
  },
  {
    "Molecule": "COc1cc(-c2ncc(F)c(NCC(O)(C(N)=O)C(F)(F)F)n2)nn1Cc1ccccc1F (stereo not shown) [Compound I-20]",
    "Value": "< 2 µM"
  },
  {
    "Molecule": "COc1nc(-c2ncc(F)c(O)n2)nn1Cc1ccccc1F [Compound I-3]",
    "Value": "> 30 µM"
  }
]
